Biological target: human Mas receptor (Homo sapiens)
Construct: expressed in transfected cells
Sequence (P04201 1-325): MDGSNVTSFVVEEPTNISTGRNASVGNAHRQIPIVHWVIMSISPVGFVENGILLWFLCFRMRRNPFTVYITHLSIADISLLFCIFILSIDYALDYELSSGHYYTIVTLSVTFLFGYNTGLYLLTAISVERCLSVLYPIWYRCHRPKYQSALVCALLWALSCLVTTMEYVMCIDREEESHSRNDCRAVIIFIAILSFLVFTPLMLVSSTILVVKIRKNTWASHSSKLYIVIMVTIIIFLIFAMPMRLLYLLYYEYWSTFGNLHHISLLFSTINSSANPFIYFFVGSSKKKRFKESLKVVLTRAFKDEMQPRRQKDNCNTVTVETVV
Test: Mas receptor IP3 assay (inverse agonist assay)
Type: cell-based
Conditions: HEK293 cells over-expressing human Mas receptor; average from several experiments
List of IC50 values.
measured metric: IC50 (nM)

compound_smiles=C=CCN1CCC2(CC1)CN(C(=O)c1ccc3c(c1)OCO3)c1ccc(F)cc12 measured_metric=IC50 observed_value=989
compound_smiles=C=CCN1CCC2(CC1)CN(C(=O)c1ccc(Br)s1)c1ccc(F)cc12 measured_metric=IC50 observed_value=307
compound_smiles=O=C(c1cccc2ccccc12)N1CC2(CCN(CC3CC3)CC2)c2cc(F)ccc21 measured_metric=IC50 observed_value=505
compound_smiles=C=CCN1CCC2(CC1)CN(C(=O)c1ccc([N+](=O)[O-])cc1)c1ccc(F)cc12 measured_metric=IC50 observed_value=757
compound_smiles=C=CCN1CCC2(CC1)CN(C(=O)c1cccnc1SC)c1ccc(F)cc12 measured_metric=IC50 observed_value=607
compound_smiles=C=CCN1CCC2(CC1)CN(C(=O)c1ccccc1Cl)c1ccc(F)cc12 measured_metric=IC50 observed_value=378
compound_smiles=C=CCN1CCC2(CC1)CN(C(=O)c1ccc(F)c(C(F)(F)F)c1)c1ccc(F)cc12 measured_metric=IC50 observed_value=896
compound_smiles=C=CCN1CCC2(CC1)CN(S(=O)(=O)c1ccc(Cl)cc1Cl)c1ccc(F)cc12 measured_metric=IC50 observed_value=956
compound_smiles=O=S(=O)(c1ccc(Cl)cc1Cl)N1CC2(CCN(CC3CC3)CC2)c2cc(F)ccc21 measured_metric=IC50 observed_value=891
compound_smiles=C=CCN1CCC2(CC1)CN(C(=O)c1cc(OC)cc(OC)c1)c1ccc(F)cc12 measured_metric=IC50 observed_value=867
compound_smiles=C=CCN1CCC2(CC1)CN(C(=O)c1cccc3ccccc13)c1ccccc12 measured_metric=IC50 observed_value=535
compound_smiles=C=CCN1CCC2(CC1)CN(C(=O)c1cccc(C(Cl)Cl)c1)c1ccc(F)cc12 measured_metric=IC50 observed_value=592
compound_smiles=C=CCN1CCC2(CC1)CN(C(=O)c1cccc3ccccc13)c1ccc(F)cc12 measured_metric=IC50 observed_value=381
compound_smiles=C=CCN1CCC2(CC1)CN(C(=O)c1cccc(C(Cl)Cl)c1)c1ccccc12 measured_metric=IC50 observed_value=939
compound_smiles=C=CCN1CCC2(CC1)CN(S(=O)(=O)c1ccccc1Cl)c1ccc(F)cc12 measured_metric=IC50 observed_value=303
compound_smiles=C=CCN1CCC2(CC1)CN(S(=O)(=O)c1ccccc1F)c1ccc(F)cc12 measured_metric=IC50 observed_value=846
compound_smiles=O=C(c1cccc(Cl)c1)N1CC2(CCN(CC3CC3)CC2)c2cc(F)ccc21 measured_metric=IC50 observed_value=757
compound_smiles=CN1CCC2(CC1)CN(C(=O)c1cccc(C(Cl)Cl)c1)c1ccc(F)cc12 measured_metric=IC50 observed_value=382
compound_smiles=O=C1c2ccccc2-c2cccc(C(=O)N3CC4(CCN(CC5CC5)CC4)c4cc(F)ccc43)c21 measured_metric=IC50 observed_value=774
compound_smiles=C=CCN1CCC2(CC1)CN(C(=O)c1ccccc1F)c1ccc(OC)cc12 measured_metric=IC50 observed_value=554
compound_smiles=COc1ccc(C(=O)N2CC3(CCN(CC4CC4)CC3)c3cc(F)ccc32)cc1 measured_metric=IC50 observed_value=900
compound_smiles=O=C(c1ccccc1F)N1CC2(CCN(CC3CC3)CC2)c2cc(F)ccc21 measured_metric=IC50 observed_value=728
compound_smiles=O=C(c1cccc(F)c1F)N1CC2(CCN(CC3CC3)CC2)c2cc(F)ccc21 measured_metric=IC50 observed_value=480
compound_smiles=C=CCN1CCC2(CC1)CN(C(=O)c1cccnc1Cl)c1ccc(F)cc12 measured_metric=IC50 observed_value=841
compound_smiles=O=C(c1ccccc1Cl)N1CC2(CCN(CC3CC3)CC2)c2ccccc21 measured_metric=IC50 observed_value=792
compound_smiles=C=CCN1CCC2(CC1)CN(C(=O)c1cc(Cl)sc1Cl)c1ccc(F)cc12 measured_metric=IC50 observed_value=855
compound_smiles=O=C(N1CC2(CCN(CC3CC3)CC2)c2cc(F)ccc21)C12CC3CC(CC(C3)C1)C2 measured_metric=IC50 observed_value=502
compound_smiles=C=CCN1CCC2(CC1)CN(S(=O)(=O)c1ccc(Cl)s1)c1ccc(F)cc12 measured_metric=IC50 observed_value=455
compound_smiles=C=CCN1CCC2(CC1)CN(C(=O)c1cccc(F)c1F)c1ccc(F)cc12 measured_metric=IC50 observed_value=298
compound_smiles=O=C(c1ccc2ccccc2c1)N1CC2(CCN(CC3CC3)CC2)c2cc(F)ccc21 measured_metric=IC50 observed_value=721
compound_smiles=O=C(c1cccc(C(Cl)Cl)c1)N1CC2(CCN(CC3CC3)CC2)c2cc(F)ccc21 measured_metric=IC50 observed_value=735
compound_smiles=C=CCN1CCC2(CC1)CN(S(=O)(=O)c1cc(Cl)c(Cl)s1)c1ccc(F)cc12 measured_metric=IC50 observed_value=890
compound_smiles=C=CCN1CCC2(CC1)CN(C(=O)c1cccc(Cl)c1)c1ccc(F)cc12 measured_metric=IC50 observed_value=705
compound_smiles=C=CCN1CCC2(CC1)CN(C(=O)c1ccc(F)cc1F)c1ccc(F)cc12 measured_metric=IC50 observed_value=936
